Property: RLU; scope: individual molecules
studyTarget: mouse Tas2r105 (Mus musculus, UniProt Q9JKT4)
Construct: expressed in transfected cells; host or cells: HEK293T-Gα16gust44
Sequence (Q9JKT4 1-300): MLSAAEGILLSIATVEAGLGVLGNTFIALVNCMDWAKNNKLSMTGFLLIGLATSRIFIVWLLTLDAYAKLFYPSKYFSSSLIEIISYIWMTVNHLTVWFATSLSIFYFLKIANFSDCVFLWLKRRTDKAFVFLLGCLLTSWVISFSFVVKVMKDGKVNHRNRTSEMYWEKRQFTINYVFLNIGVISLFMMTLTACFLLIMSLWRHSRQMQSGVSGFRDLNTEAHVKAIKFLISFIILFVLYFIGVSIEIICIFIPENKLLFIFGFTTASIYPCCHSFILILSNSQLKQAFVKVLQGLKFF
experimentalProtocol: Calcium imaging assay (FLIPR), HEK293T-Gα16gust44 cells transfected with mouse Tas2r105
Assay type: cell-based
assaySetup: Time 34.781 s
Kindly provide the numeric value in RLU only, without the unit symbol.

C[C@H](CCC(=O)O)[C@H]1CC[C@H]2[C@@H]3CC[C@@H]4C[C@H](O)CC[C@]4(C)[C@H]3CC[C@]12C [Lithocholic Acid, lithocholic acid]: 27.1912

Give recorded RLU. C[C@H](CCC(=O)O)[C@H]1CC[C@H]2[C@@H]3[C@H](O)C[C@@H]4C[C@H](O)CC[C@]4(C)[C@H]3C[C@H](O)[C@]12C [Cholic Acid, cholic acid]
65.8416

Give recorded RLU. C[C@H](CCC(=O)O)[C@H]1CC[C@H]2[C@@H]3CC[C@@H]4C[C@H](O)CC[C@]4(C)[C@H]3C[C@H](O)[C@]12C [Deoxycholic Acid, deoxycholic acid]
4.775

Give recorded RLU. C[C@H](CCC(=O)NCC(=O)O)[C@H]1CC[C@H]2[C@@H]3[C@H](O)C[C@@H]4C[C@H](O)CC[C@]4(C)[C@H]3C[C@H](O)[C@]12C [Glycocholic Acid, glycocholic acid]
38.6999

* * *

studyTarget: human TAS2R1 (Homo sapiens)
Construct: expressed in transfected cells; host or cells: HEK293T-Gα16gust44
Sequence (Q9NYW7 1-299): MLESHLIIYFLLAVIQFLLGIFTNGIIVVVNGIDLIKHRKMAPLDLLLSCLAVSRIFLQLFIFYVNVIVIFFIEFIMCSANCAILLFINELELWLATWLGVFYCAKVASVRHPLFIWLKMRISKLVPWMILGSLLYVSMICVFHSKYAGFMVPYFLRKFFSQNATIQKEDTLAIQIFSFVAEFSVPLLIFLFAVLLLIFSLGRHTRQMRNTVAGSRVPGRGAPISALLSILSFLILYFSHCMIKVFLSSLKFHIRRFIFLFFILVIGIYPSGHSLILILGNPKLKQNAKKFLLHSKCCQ
experimentalProtocol: Calcium imaging assay (FLIPR), HEK293T-Gα16gust44 cells transfected with human TAS2R1
Format: cell-based
assaySetup: Time 221.562 s
observedProperty: RLU (RLU)
Kindly provide the numeric value in RLU only, without the unit symbol.

Before answering, review these 3 worked examples.
C[C@H](CCC(=O)O)[C@H]1CC[C@H]2[C@@H]3[C@H](O)C[C@@H]4C[C@H](O)CC[C@]4(C)[C@H]3C[C@H](O)[C@]12C: 58.6538
C[C@H](CCC(=O)O)[C@H]1CC[C@H]2[C@@H]3CC[C@@H]4C[C@H](O)CC[C@]4(C)[C@H]3CC[C@]12C: 386.034
C[C@H](CCC(=O)O)[C@H]1CC[C@H]2[C@@H]3[C@@H](O)C[C@@H]4C[C@H](O)CC[C@]4(C)[C@H]3CC[C@]12C: 21.314

Now for another entry.
Give recorded RLU. C[C@H](CCC(=O)O)[C@H]1CC[C@H]2[C@@H]3[C@H](O)C[C@@H]4C[C@H](O)CC[C@]4(C)[C@H]3CC[C@]12C
283.821
